Target: UniProtKB O60885
Test: BRD4 protein degradation inducing action in cancer cells (immunofluorescence, Operetta)
Format: cell-based
Conditions: LNCaP cells, 6 hr treatment, fluorescence intensity
Method: The degradation inducing action of the compound of the present invention on BRD4 protein in cancer cells was evaluated in vitro using human prostate cancer LNCaP cells. […] After incubation for 1 hr, BRD4 protein amount was measured by Operetta (Perkin Elmer) as fluorescence intensity. • Anti-Rabbit IgG(H+L), F(ab′)2 Fragment (Alexa Fluor 488 Conjugate) (Cell Signaling Technology), fluorescence intensity was measured at excitation: 495 nm, emission: 519 nm. […]
Measured Attribute: DC50 (nM)
State the answer as a number, implicitly in nM.

Query: What reported DC50 corresponds to COC(=O)C[C@@H]1N=C(c2ccc(-c3ccc(SCC(=O)N[C@H](C(=O)N4C[C@H](O)C[C@H]4C(=O)N[C@@H](C)c4ccc(-c5scnc5C)cc4)C(C)(C)C)cc3)cc2)c2c(sc(C)c2C)-n2c(C)nnc21 on UniProtKB O60885?
Response: 0.091

Query: Please do the same for COC(=O)C[C@@H]1N=C(c2ccc(-c3ccc(NCC(=O)N[C@H](C(=O)N4C[C@H](O)C[C@H]4C(=O)N[C@@H](C)c4ccc(-c5scnc5C)cc4)C(C)(C)C)cc3)cc2)c2c(sc(C)c2C)-n2c(C)nnc21 as well.
Response: 0.051

----------
Hi there, I'd appreciate the recorded IC50 for every entry that follows.
System: human uterine sarcoma MES-SA cell
Experiment: Cytotoxic action on cancer cells (WST-8, 96 hr)
Format: cell-based
Conditions: 96 hr culture
Method: The cytotoxic action of the compound of the present invention against human cancer cells was evaluated in vitro. […] After culturing, the viable cell number was measured using a cell number measurement WST-8 kit (Kishida Chemical Co., Ltd.). […] It was calculated from the straight line connecting the cell survival rate at two points enclosing the 50% cell survival rate and the compound concentration. […]
In your response, put the unit directly after the numeric value.

Query: Can you share its IC50? I mean this molecule: COC(=O)C[C@@H]1N=C(c2ccc(-c3ccc(OCCOCC(=O)N[C@H](C(=O)N4C[C@H](O)C[C@H]4C(=O)N[C@@H](C)c4ccc(-c5scnc5C)cc4)C(C)(C)C)c(C#N)c3)cc2)c2c(sc(C)c2C)-n2c(C)nnc21
Response: 21 nM

Query: Please do the same for COC(=O)C[C@@H]1N=C(c2ccc(-c3ccc(OCC(=O)N[C@H](C(=O)N4C[C@H](O)C[C@H]4C(=O)N[C@@H](C)c4ccc(-c5scnc5C)cc4)C(C)(C)C)c(C#N)c3)cc2)c2c(sc(C)c2C)-n2c(C)nnc21 as well.
Response: 2.6 nM

Query: Please do the same for COC(=O)C[C@@H]1N=C(c2ccc(N3CC[C@@H](Oc4ccc5oc(C(=O)N[C@H](C(=O)N6C[C@H](O)C[C@H]6C(=O)N[C@@H](C)c6ccc(-c7scnc7C)cc6)C(C)(C)C)cc5c4)C3)cc2)c2c(sc(C)c2C)-n2c(C)nnc21 as well.
Response: 1.6 nM

Query: Please do the same for COC(=O)C[C@@H]1N=C(c2ccc(-c3ccc(C(=O)N[C@H](C(=O)N4C[C@H](O)C[C@H]4C(=O)N[C@@H](C)c4ccc(-c5scnc5C)cc4)C(C)(C)C)c(Cl)c3)cc2)c2c(sc(C)c2C)-n2c(C)nnc21 as well.
Response: 1.7 nM

Ref: patent US11542273B2
